Assay: Immuno precipitation and cell cytotoxicity experiments (MTT)
Assay type: cell-based
Conditions: Chinese hamster, 7.5 mM phenylalanine assemblies, prior to IP, CHO cells
observed.property: viability at 6 h, 7.5 mM (%)

| sample.smiles | observed.property | value.measured |
| --- | --- | --- |
| N[C@@H](Cc1ccccc1)C(=O)O | viability at 6 h, 7.5 mM | 44 |

====

Assay: MTT cell viability assay, CHO cell line
Assay type: cell-based
Conditions: Chinese hamster, CHO cells, 6 mM phenylalanine
observed.property: viability at 6 h, 6 mM (%)

| sample.smiles | value.measured |
| --- | --- |
| N[C@@H](Cc1ccccc1)C(=O)O | 84 |

====

Assay: MTT cell viability assay, CHO cell line
Type: cell-based
Settings: Chinese hamster, CHO cells, 12 mM phenylalanine

| sample.smiles | viability at 6 h, 12 mM |
| --- | --- |
| N[C@@H](Cc1ccccc1)C(=O)O | < 40% |

====

Assay: Immuno precipitation and cell cytotoxicity experiments (MTT)
Format: cell-based
Conditions: Chinese hamster, 1.87 mM phenylalanine assemblies, prior to IP, CHO cells

| sample.smiles | unit.of.measurement | viability at 6 h, 1.87 mM |
| --- | --- | --- |
| N[C@@H](Cc1ccccc1)C(=O)O | % | 56 |

====

Assay: MTT cell viability assay, PC12 cell line
Type: cell-based
Details: rat, PC12 cells, 1.8 mM phenylalanine

| sample.smiles | viability at 1.8 mM |
| --- | --- |
| N[C@@H](Cc1ccccc1)C(=O)O | ~80% |
